TARGET: T1, Cy3-N-Cav_(19-40) (caveolin-1 aa 19-40, Cy3-labelled) (not fully specified)
T1 construct: also called Cy3-Cav_(19-40); N-caveolin-1_(19-40)
T1 peptide: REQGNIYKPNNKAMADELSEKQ
TEST DETAILS: other fluorescence titration
MEASUREMENT SETUP: both partners purified
RECORDED ENDPOINT: pKd
Scale: negative log10 of molar concentration, which is what pKd denotes.

stdin: Could you share which pKd value was measured for MIDKLTTREIEQVELLKRIYDKLTVQTTG (also called NSP4 (aa 112-140)) [NSP4_(112-140) peptide (rotavirus nonstructural protein 4, aa 112-140)] ?
stdout: 7.40
